meta.source: PubChem BioAssay (NCI)

- System: MDA-MB-435
- TEST: NCI tumour cell line growth inhibition, 48 h
MEASURED_PROPERTY: TGI

> print(dat)
                                    molecule  assayed.system      value
 1            O=C1N(C2CCCCC2)C(=O)N1C1CCCCC1      MDA-MB-435  > 81.4 µM
 2      Cc1ccc(-c2nnc(-c3ccc4ccccc4c3)o2)cc1      MDA-MB-435   > 100 µM
 3  Cc1cc(=O)n2[nH]c(-c3ccc(C(C)(C)C)cc3)cc2n1      MDA-MB-435   > 100 µM
 4  O=C(O)CCC(NC(=O)c1ccc(OCc2nc3cc(C(F)(F)F)ccc3nc2-c2ccccc2)cc1)C(=O)O (stereo unspecified)      MDA-MB-435   > 100 µM
 5  CC1=C(C#N)C23C(=O)c4ccccc4C(O)=C2C(=O)C=CC3(O)N1Cc1ccccc1 (stereo unspecified)      MDA-MB-435   > 100 µM
 6  C[N+](C)(CCCn1ccnc1[N+](=O)[O-])CCCn1ccnc1[N+](=O)[O-]      MDA-MB-435   > 100 µM
 7  CC(C)=C1C(=O)C[C@]2(C)C[C@H]3O[C@]3(C)CC[C@@H]3O[C@@]3(C)CC[C@@H]12      MDA-MB-435    > 50 µM
 8  O=C(NC(=S)Nc1ccc(Br)cc1)c1ccc2c(c1)Sc1ccccc1S2      MDA-MB-435   > 100 µM
 9  C=CCC1(O)CC(n2cc(C)c(=O)[nH]c2=O)OC1CO[Si](C)(C)C(C)(C)C (stereo unspecified)      MDA-MB-435   > 100 µM
10      CC(=O)c1cccc(Nc2nc3ccccc3c3occc23)c1      MDA-MB-435   > 100 µM
11          Cn1c(=O)c2c3ccccc3n(C)c2n(C)c1=O      MDA-MB-435   > 100 µM
12  S=c1nc2sc3c(c2c(Nc2ccc(Cl)cc2)[nH]1)CCCC3      MDA-MB-435   > 100 µM
13                  c1cc2c(cc1NC1=NCCO1)CCC2      MDA-MB-435    > 10 µM
14               Nc1ncc(Br)c(NCC2(CO)CCC2)n1      MDA-MB-435   > 100 µM
15    Clc1cccc(Cc2cn3cc(-c4ccccc4)nc3s2)c1Cl      MDA-MB-435   > 100 µM
16  NC(CCCCCCCCCCP(=O)(O)O)C(=O)O (stereo unspecified)      MDA-MB-435   > 100 µM
17                  NC(=O)C(=CNC(N)=S)C(N)=O      MDA-MB-435   > 100 µM
18       NC(N)=Nc1ccc(-c2ccc(N=C(N)N)cc2)cc1      MDA-MB-435   > 100 µM
19        CCCN(CCC)CCc1ccc(OC2=CCN(C)CC2)cc1      MDA-MB-435   > 100 µM
20  NC(=O)c1ccc(C(=O)Nc2ccc([As](=O)(O)O)cc2)cc1      MDA-MB-435   > 100 µM
21  O=C1NC(N/N=C/C(O)C(O)C(O)C(O)CO)=N/C1=C\c1ccco1 (stereo unspecified)      MDA-MB-435   > 100 µM
22                    CSC(=N/C=C/c1ccccc1)SC      MDA-MB-435   > 100 µM
23  CNC(=O)c1ccccc1Nc1nc(Nc2ccc(N3CCOCC3)cc2OC)ncc1Cl      MDA-MB-435  > 66.4 µM
24                  Nc1ccccc1-c1noc(=O)[nH]1      MDA-MB-435   > 100 µM
25  CO[C@]1(c2ccc([N+](=O)[O-])cc2)Oc2ccccc2C(=O)[C@@]1(Nc1ccc(C=O)cc1)OC      MDA-MB-435    > 10 µM
26  O=c1n(CC2CO2)c(=O)n(CC2CO2)n1CC1CO1 (stereo unspecified)      MDA-MB-435   > 100 µM

====

- Test system: CAKI-1 renal
- TEST: NCI tumour cell line growth inhibition, 48 h

COMPOUND	TGI
CC1=NN(c2nc(N)nc(/C(C#N)=C/c3ccccc3O)n2)C(C)(C)C1	36.9 µM
CC1OC(OC2C(O[C@H]3CC[C@@H]4C(=CC[C@@H]5[C@@]4(C)C(=O)C[C@]4(C)[C@@H]([C@H](C)CC[C@@H](O)C(C)(C)O)CC[C@@]54C)C3(C)C)OC(CO)C(O)C2O)C(O)C(O)C1O (stereo partly specified)	> 100 µM
C[n+]1c2ccccc2c(NCC(=O)O)c2ccccc21	> 100 µM
C=CC[C@H]1O[Si](C(C)(C)C)(C(C)(C)C)[C@H](C)[C@H]1C	> 100 µM
O=[N+]([O-])c1cccc2nc3ccccc3c(NCCCCNc3c4ccccc4nc4cccc([N+](=O)[O-])c34)c12	0.168 µM
Cc1cnc(NC(=O)C(Cc2ccccc2)NC(=O)c2ccccc2)s1 (stereo unspecified)	> 100 µM
C=Cc1nc2c(Cl)ncnc2n1Cc1ccccc1	3.99 µM
N#CC(C#N)=c1ccc(=C2NCC3CCCN23)cc1 (stereo unspecified)	> 100 µM
CC1=C(C(=O)OCCO[N+](=O)[O-])C(c2cccc([N+](=O)[O-])c2)C(C(=O)OC(C)C)=C(C)N1 (stereo unspecified)	95.7 µM
CC(=O)C(CN(C(C)C)C(C)C)C(c1ccccc1)c1c(O)c2ccccc2oc1=O (stereo unspecified)	> 100 µM
NC1CC(=O)c2cscc21 (stereo unspecified)	29.3 µM
CC1(C)OC(=O)C(=Cc2ccc(O)cc2)C(=O)O1	> 100 µM
Cc1ccc(N=N/C(=N/NC(=O)c2cc(Cl)ccc2O)c2ccc(N(CCC#N)CCC#N)cc2C)cc1	> 100 µM
COc1cc2c(c(OC)c1O)-c1ccc(SC)c(=O)cc1C(NC(C)=O)CC2 (stereo unspecified)	> 100 µM
CCCN(CCC)CCc1ccc(OC2=CCN(C)CC2)cc1	> 100 µM
COc1cc2nc(-c3ccc(C(F)(F)F)cc3)cc(OCCCN3CCC(O)CC3)c2cc1OC	13.1 µM

====

- System: MOLT-4 leukemia
- TEST: NCI tumour cell line growth inhibition, 48 h; in the data active = GI50 below about 0.43 µM; inactive = the rest
Outcomes: 1 = active, 0 = inactive

> print(dat)
                                   compound  answer.label
1  Cc1cc(=O)n2[nH]c(-c3ccc(C(C)(C)C)cc3)cc2n1             0
2   CCCCCCCCSC1=CC(=O)c2nc3ccccc3c3ccnc1c23             0
3  COc1cc2c(c(OC)c1O)C(=O)C(OC)C(c1ccc(O)c(O)c1)O2 (stereo unspecified)             0
4  NC(CSC(c1ccccc1)(c1ccccc1)c1ccc2c(c1)OCO2)C(=O)O (stereo unspecified)             0
5  COC(=O)Nc1nc2ccc(S(=O)c3ccccc3)cc2[nH]1 (stereo unspecified)             0
6  O=C(CN1CCN(c2cc3c(cc2F)c(=O)c(C(=O)N/N=C/c2ccccc2O)cn3C2CC2)CC1)N/N=C\c1ccccc1O             1

====

- Test system: IGROV1 ovarian
- TEST: NCI tumour cell line growth inhibition, 48 h
MEASURED_PROPERTY: TGI

> print(dat)
                                    compound     value
 1                   N#Cc1cccc2c1Sc1ccccc1N2  > 100 µM
 2  Cc1ccc(S(=O)(=O)NC(=O)NC(CC(N)=O)C(=O)O)cc1 (configuration not stated)  > 100 µM
 3  C1=CC2(C=CC13O[C@H](C1CCCCC1)[C@@H](C1CCCCC1)O3)O[C@H](C1CCCCC1)[C@@H](C1CCCCC1)O2   > 50 µM
 4  C[C@@H](CS(C)(=O)=O)Nc1ncc2cc(Oc3ccc(F)cc3F)c(=O)n(C)c2n1   > 25 µM
 5    Clc1cccc(Cc2cn3cc(-c4ccccc4)nc3s2)c1Cl  > 100 µM
 6  C/C(=C\CO)CC/C=C(\C)CNc1c(F)c(F)c(F)c(F)c1F  > 100 µM
 7        O=C(CCl)N1c2ccccc2Oc2ccc3ccccc3c21   2.53 µM
 8  S=C(N1CCN(c2ccc(Cl)c(Cl)c2)CC1)N1CCN(c2ccc(Cl)c(Cl)c2)CC1   22.5 µM
 9  CCOC(=O)C1=C(C)CC2C(=O)OC(=O)C2C1(C)C (configuration not stated)  > 100 µM
10  C=CC[C@H]1O[Si](C(C)(C)C)(C(C)(C)C)[C@H](C)[C@H]1C  > 100 µM
11  COc1cc2c(c(OC)c1O)-c1ccc(SC)c(=O)cc1C(NC(C)=O)CC2 (configuration not stated)  > 100 µM
12  C=CCc1cc(OC)c2c(c1)C(O)CC(c1ccc(OC)c(OC)c1)O2 (configuration not stated)  > 100 µM
